Target: α-glucosidase
Experiment: α-Glucosidase inhibition assay (p-NPG substrate)
Details: mean ± SD, n = 4
Measured IC50, listed per entry.

COc1cc2oc3ccccc3c(=O)c2cc1OCC(C)=O : > 400 µM

Answer with reported IC50 of COc1cc2oc3ccccc3c(=O)c2c2c1OC(C)(C)C=C2 > 400 µM

Fill in reported IC50 for this entry: C=CCc1c(OCCCCn2ccnc2)c(OC)cc2oc3ccccc3c(=O)c12 [Compound 10d] > 400 µM

Values were extracted from paper PMC10222686.
